Data origin: patent US20260109732A1

Each entry below carries its reported Diameter (nm).
experiment: Diameter and PDI from DLS measurements of mRNA nanoparticles with lipid amines; type: physicochemical; details: CFTR mRNA nanoparticle with lipid amine
Structures can show the parent of a compound that is named as a salt.
MEASURE_NAME: Diameter (nm)

compound=CC(C)CCC[C@@H](C)[C@H]1CC[C@H]2[C@@H]3CC=C4C[C@@H](OC(=O)[C@H](CCCN)NCCCCCCN)CC[C@]4(C)[C@H]3CC[C@]12C.Cl.Cl.Cl measure_name="Diameter (nm)" val=84.2
compound="CC(C)CCC[C@@H](C)[C@H]1CC[C@H]2[C@@H]3CC=C4C[C@@H](OC(=O)N(CCCN)CCCCOCCCN)CC[C@]4(C)[C@H]3CC[C@]12C [SA61, dihydrochloride]" measure_name="Diameter (nm)" val=71.3
compound="CC[C@H](CC[C@@H](C)[C@H]1CC[C@H]2[C@@H]3CC=C4C[C@@H](OC(=O)CCCCC(=O)N(CCCN)CCCCNCCCN)CC[C@]4(C)[C@H]3CC[C@]12C)C(C)C [SA90, trihydrochloride]" measure_name="Diameter (nm)" val=84.6

---

Each entry below carries its reported Diameter (nm).
assay: Diameter and PDI from DLS measurements of mRNA nanoparticles with lipid amines; format: physicochemical; details: Luciferase mRNA nanoparticle modified with lipid amine
Where a name gives a salt, the structure may show the parent alone.
MEASURE_NAME: Diameter (nm)

compound="CC[C@H](CC[C@@H](C)[C@H]1CC[C@H]2[C@@H]3CC=C4C[C@@H](OC(=O)CCC(=O)N(CCCCNCCC(C)(C)N)CCC(C)(C)N)CC[C@]4(C)[C@H]3CC[C@]12C)C(C)C [SA161, trihydrochloride]" unit_info=nm val=77
compound="CC[C@H](CC[C@@H](C)[C@H]1CC[C@H]2[C@@H]3CC=C4C[C@@H](OC(=O)CCC(=O)N(CCC(C)(C)N)CCC(C)(C)N)CC[C@]4(C)[C@H]3CC[C@]12C)C(C)C [SA170, dihydrochloride]" unit_info=nm val=75
compound="CC[C@H](CC[C@@H](C)[C@H]1CC[C@H]2[C@@H]3CC=C4C[C@@H](SSCCC(=O)N(CCCCCCCC(C)N)CCC(C)N)CC[C@]4(C)[C@H]3CC[C@]12C)C(C)C (some centres unmarked) [SA178, dihydrochloride]" unit_info=nm val=75
compound="CC(C)CCC[C@@H](C)[C@H]1CC[C@H]2[C@@H]3CC=C4C[C@@H](OC(=O)N(CCCCNCC(F)CN)CC(F)CN)CC[C@]4(C)[C@H]3CC[C@]12C (some centres unmarked) [SA87, trihydrochloride]" unit_info=nm val=75
compound="CC[C@H](CC[C@@H](C)[C@H]1CC[C@H]2[C@@H]3CC=C4C[C@@H](OC(=O)CCCC(=O)N(CCCCCCCC(C)N)CCC(C)N)CC[C@]4(C)[C@H]3CC[C@]12C)C(C)C (some centres unmarked) [SA154, dihydrochloride]" unit_info=nm val=73
compound="CC(C)CCC[C@@H](C)[C@H]1CC[C@H]2[C@@H]3CC=C4C[C@@H](OC(=O)CCC(=O)N(CCC(C)(C)N)CCC(C)(C)N)CC[C@]4(C)[C@H]3CC[C@]12C [SA169, dihydrochloride]" unit_info=nm val=77
compound="CC(C)CCC[C@@H](C)[C@H]1CC[C@H]2[C@@H]3CC=C4C[C@@H](SSCCC(=O)N(CCCCCCCC(C)N)CCC(C)N)CC[C@]4(C)[C@H]3CC[C@]12C (some centres unmarked) [SA172, dihydrochloride]" unit_info=nm val=74
compound="CC(C)CCC[C@@H](C)[C@H]1CC[C@H]2[C@@H]3CC=C4C[C@@H](OC(=O)N(CCCCNCCC(C)(C)N)CCC(C)(C)N)CC[C@]4(C)[C@H]3CC[C@]12C [SA78, trihydrochloride]" unit_info=nm val=76
